The following sequences are listed with their measured shrunken log2 fold change values.
test system: Escherichia coli TOP10; assay: shrunken log2 fold change of peptide-encoding DNA abundance (4.5 h post-induction vs induction); higher = less antimicrobial activity (less host growth inhibition); details: time post-induction: 4.5 h; library: site-saturation at positions 5, 18, 19, 20

seq_text | shrunken log2 fold change
RRIRTRPPRLPRPRPRPIYVPRP | -0.34

Turning now to a further record.
Query :: Report the value of shrunken log2 fold change obtained on Escherichia coli TOP10 for `RRIRRRPPRLPRPRPRPIENPRP` .
Result :: -0.0103

----------
The following sequences are listed with their measured shrunken log2 fold change values.
test system: Escherichia coli TOP10; test: shrunken log2 fold change of peptide-encoding DNA abundance (4.5 h post-induction vs induction); higher = less antimicrobial activity (less host growth inhibition); conditions: time post-induction: 4.5 h; library: site-saturation at positions 5, 18, 19, 20;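 note: peptides expressed intracellularly from a pBAD plasmid library in pooled LB shake-flask culture, induced with 0.3% L-arabinose, DNA abundance read by NGS, three biological replicates, DESeq2 with apeglm shrinkage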
Number, no unit, nothing else.

Some solved entries appear below for comparison.
seq_text | assay_target | shrunken log2 fold change
RRIRVRPPRLPRPRPRPATSPRP | Escherichia coli TOP10 | -0.0495
RRIRHRPPRLPRPRPRPQIKPRP | Escherichia coli TOP10 | -0.889
RRIRHRPPRLPRPRPRPCIGPRP | Escherichia coli TOP10 | -0.58
RRIRQRPPRLPRPRPRPAWYPRP | Escherichia coli TOP10 | -0.0125
RRIRRRPPRLPRPRPRPFHKPRP | Escherichia coli TOP10 | 0.0306

Query :: Report the value of shrunken log2 fold change obtained on Escherichia coli TOP10 for `RRIRARPPRLPRPRPRPVLTPRP` .
Result :: 0.384

Query :: Report the value of shrunken log2 fold change obtained on Escherichia coli TOP10 for `RRIRWRPPRLPRPRPRPPSHPRP` .
Result :: 0.163

Query :: Report the value of shrunken log2 fold change obtained on Escherichia coli TOP10 for `RRIRKRPPRLPRPRPRPEDIPRP` .
Result :: -0.00208
